Molecular target: mouse Tas2r105 (Mus musculus)
Construct: expressed in transfected cells; host or cells: HEK293T-Gα16gust44
Sequence (Q9JKT4 1-300): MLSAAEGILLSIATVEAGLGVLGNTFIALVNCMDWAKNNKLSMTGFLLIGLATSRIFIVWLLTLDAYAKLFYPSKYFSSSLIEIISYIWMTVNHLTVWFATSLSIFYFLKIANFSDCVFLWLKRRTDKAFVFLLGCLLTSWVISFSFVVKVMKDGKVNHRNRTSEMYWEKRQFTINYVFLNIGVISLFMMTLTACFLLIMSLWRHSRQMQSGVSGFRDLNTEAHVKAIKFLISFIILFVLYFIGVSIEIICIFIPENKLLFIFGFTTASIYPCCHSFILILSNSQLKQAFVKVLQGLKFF
Test: Calcium imaging assay (FLIPR), HEK293T-Gα16gust44 cells transfected with mouse Tas2r105
Assay type: cell-based
Details: Time 64.781 s
I'd be grateful if you could share measured RLU for these entries.
Numbers only, in RLU.

* C[C@H](CCC(=O)O)[C@H]1CC[C@H]2[C@@H]3CC[C@@H]4C[C@H](O)CC[C@]4(C)[C@H]3C[C@H](O)[C@]12C [Deoxycholic Acid, deoxycholic acid] | 21.9337
* C[C@H](CCC(=O)O)[C@H]1CC[C@H]2[C@@H]3CC[C@@H]4C[C@H](O)CC[C@]4(C)[C@H]3CC[C@]12C [Lithocholic Acid, lithocholic acid] | 112.529
* C[C@H](CCC(=O)O)[C@H]1CC[C@H]2[C@@H]3[C@H](O)C[C@@H]4C[C@H](O)CC[C@]4(C)[C@H]3C[C@H](O)[C@]12C [Cholic Acid, cholic acid] | 342.91

Note: attention shifts to another entry.
[Q] Entry C[C@H](CCC(=O)NCC(=O)O)[C@H]1CC[C@H]2[C@@H]3[C@H](O)C[C@@H]4C[C@H](O)CC[C@]4(C)[C@H]3C[C@H](O)[C@]12C [Glycocholic Acid, glycocholic acid] : reported RLU = ?
[A] 388.62
